Data provenance is paper PMC12077508.

- Target system: Olfr73 (mOR-EG) (Mus musculus)
- Sequence (Q920P2 1-313): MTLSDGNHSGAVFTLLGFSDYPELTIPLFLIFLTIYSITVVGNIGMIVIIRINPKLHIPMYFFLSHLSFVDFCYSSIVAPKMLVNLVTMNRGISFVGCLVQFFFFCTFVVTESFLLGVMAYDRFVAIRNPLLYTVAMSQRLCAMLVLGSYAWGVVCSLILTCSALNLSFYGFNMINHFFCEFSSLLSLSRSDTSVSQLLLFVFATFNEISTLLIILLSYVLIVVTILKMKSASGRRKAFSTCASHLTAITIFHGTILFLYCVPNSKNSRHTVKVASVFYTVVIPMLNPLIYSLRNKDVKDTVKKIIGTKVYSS
- Protocol details: cAMPr fluorescence imaging in transfected HEK293T cells
Value kind: pEC50
Field pEC50 (float): negative decimal logarithm of the concentration in molar.

### Prompt Would you mind telling me what pEC50 value was observed for C=CCc1ccc(O)c(OC)c1 ?
### Response 3.81

* * *

- Target system: OR51E1 (Homo sapiens)
- Sequence (Q8TCB6 whole entry): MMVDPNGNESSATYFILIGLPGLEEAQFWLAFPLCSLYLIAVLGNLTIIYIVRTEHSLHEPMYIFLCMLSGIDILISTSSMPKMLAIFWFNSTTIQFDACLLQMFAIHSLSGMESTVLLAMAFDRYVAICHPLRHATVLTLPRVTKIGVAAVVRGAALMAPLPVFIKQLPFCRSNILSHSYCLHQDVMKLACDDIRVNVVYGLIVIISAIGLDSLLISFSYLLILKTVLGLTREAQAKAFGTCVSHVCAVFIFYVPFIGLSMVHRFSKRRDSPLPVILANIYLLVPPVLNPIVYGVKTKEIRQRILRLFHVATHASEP
- Protocol details: cAMPr fluorescence imaging in transfected HEK293T cells
- Assay type: cell-based
Value kind: pEC50
Field pEC50 (float): negative decimal logarithm of the concentration in molar.

### Prompt Would you mind telling me what pEC50 value was observed for CC(C)CC(=O)O [isovaleric acid] ?
### Response 3.08

* * *

- Target system: OR2J2 (Homo sapiens, UniProt O76002)
- Sequence (O76002 1-312): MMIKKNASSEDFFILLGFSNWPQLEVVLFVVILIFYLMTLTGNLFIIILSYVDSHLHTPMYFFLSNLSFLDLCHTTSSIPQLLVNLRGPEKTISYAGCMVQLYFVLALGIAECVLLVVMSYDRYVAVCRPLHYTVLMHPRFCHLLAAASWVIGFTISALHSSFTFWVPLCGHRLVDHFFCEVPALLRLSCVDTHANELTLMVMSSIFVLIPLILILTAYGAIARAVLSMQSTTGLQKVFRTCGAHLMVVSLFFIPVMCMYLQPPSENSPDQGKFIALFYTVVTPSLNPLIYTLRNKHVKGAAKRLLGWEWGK
- Protocol details: cAMPr fluorescence imaging in transfected HEK293T cells
Value kind: pEC50
Field pEC50 (float): negative decimal logarithm of the concentration in molar.

### Prompt Would you mind telling me what pEC50 value was observed for CCCCCCCC1CCC(=O)O1 (stereo not shown) ?
### Response 3.60

* * *

- Target system: OR5P3 (Homo sapiens, UniProt Q8WZ94)
- Sequence (Q8WZ94 whole entry): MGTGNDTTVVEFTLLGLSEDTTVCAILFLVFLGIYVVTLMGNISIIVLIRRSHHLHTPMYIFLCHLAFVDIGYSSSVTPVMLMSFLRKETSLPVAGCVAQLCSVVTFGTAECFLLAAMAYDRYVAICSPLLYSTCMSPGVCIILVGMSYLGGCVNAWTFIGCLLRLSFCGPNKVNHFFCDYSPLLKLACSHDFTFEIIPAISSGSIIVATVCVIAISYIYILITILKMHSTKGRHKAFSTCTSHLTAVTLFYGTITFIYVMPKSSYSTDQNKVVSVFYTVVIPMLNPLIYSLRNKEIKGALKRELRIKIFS
- Protocol details: cAMPr fluorescence imaging in transfected HEK293T cells
Value kind: pEC50
Field pEC50 (float): negative decimal logarithm of the concentration in molar.

### Prompt Would you mind telling me what pEC50 value was observed for COC(=O)c1ccccc1N [methyl anthranilate] ?
### Response 2.66

* * *

- Target system: OR5K1 (Homo sapiens)
- Sequence (Q8NHB7 whole entry): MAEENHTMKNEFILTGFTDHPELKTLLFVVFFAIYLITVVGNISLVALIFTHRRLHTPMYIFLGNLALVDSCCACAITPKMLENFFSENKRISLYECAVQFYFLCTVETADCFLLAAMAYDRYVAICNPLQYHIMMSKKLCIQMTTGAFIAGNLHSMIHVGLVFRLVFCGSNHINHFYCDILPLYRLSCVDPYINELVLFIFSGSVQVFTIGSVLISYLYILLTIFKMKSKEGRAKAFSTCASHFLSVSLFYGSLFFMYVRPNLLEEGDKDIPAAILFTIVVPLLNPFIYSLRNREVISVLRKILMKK
- Protocol details: cAMPr fluorescence imaging in transfected HEK293T cells
Value kind: pEC50
Field pEC50 (float): negative decimal logarithm of the concentration in molar.

### Prompt Missing value: pEC50, OR5K1 (Homo sapiens), entry Cc1nccnc1C . Fill in?
### Response 1.92

* * *

- Target system: OR8D1 (Homo sapiens)
- Sequence (Q8WZ84 whole entry): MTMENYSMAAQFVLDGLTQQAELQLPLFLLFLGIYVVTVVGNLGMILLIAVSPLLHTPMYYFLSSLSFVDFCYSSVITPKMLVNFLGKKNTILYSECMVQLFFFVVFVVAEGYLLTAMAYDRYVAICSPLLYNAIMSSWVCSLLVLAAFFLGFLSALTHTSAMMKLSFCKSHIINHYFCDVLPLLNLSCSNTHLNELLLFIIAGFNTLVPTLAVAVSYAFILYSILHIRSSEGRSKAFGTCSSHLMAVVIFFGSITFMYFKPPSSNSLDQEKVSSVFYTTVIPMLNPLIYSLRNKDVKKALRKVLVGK
- Protocol details: cAMPr fluorescence imaging in transfected HEK293T cells
Value kind: EC50 (µM)
Your answer is read as µM, so omit the unit and give the number.

1) CC1=C(O)C(=O)CC1: 1100

### Prompt Would you mind telling me what EC50 value was observed for CC1=C(O)C(=O)OC1C (centres unmarked) ?
### Response 7.7
